System: K. oxytoca GN10650*
TEST SUMMARY: in vitro antibacterial activity, agar plate dilution method
Type: cell-based
EXPERIMENTAL PARAMETERS: Klebsiella oxytoca, GN10650, 16 h
MEASUREMENT LABEL: MIC (µg/mL)
Write down the numeric answer in µg/mL and omit the unit.

The following compounds have reported results that may help.
> print(dat)
                              smiles.record  unit.label  recorded.value
1  C=C(O/N=C(\C(=O)N[C@@H]1C(=O)N2C(C(=O)O)=C(C[n+]3ccc(CCS(=O)(=O)[O-])cc3)CS[C@H]12)c1csc(N)n1)C(=O)O       µg/mL             0.2
2  C=C(O/N=C(\C(=O)N[C@@H]1C(=O)N2C(C(=O)O)=C(CSc3ncc(-c4ccc(O)c(O)c4)o3)CS[C@H]12)c1csc(N)n1)C(=O)O       µg/mL             0.1
3  C=C(O/N=C(\C(=O)N[C@@H]1C(=O)N2C(C(=O)O)=C(CSc3nc(C(=O)O)c(-c4ccc(O)c(O)c4)s3)CS[C@H]12)c1csc(N)n1)C(=O)O       µg/mL             0.1

// query Which MIC reading was recorded for the compound C=C(O/N=C(\C(=O)N[C@@H]1C(=O)N2C(C(=O)[O-])=C(C[n+]3ccc(C(N)=O)cc3)CS[C@H]12)c1csc(N)n1)C(=O)O ?
// result 0.2
